Tested on: Klebsiella aerogenes DSM 30053
method: fold change of Histamine concentration vs plate DMSO controls (fold change (ratio)); higher = more amine produced, active = hit call of the paper (significant change in both replicates, either direction)
study conditions: 20 µM; incubation time: 27 h, anaerobic, 37 °C
Structures can show the parent of a compound that is named as a salt.
experimental endpoint: fold change of Histamine concentration
Please give only the number in your answer, with no unit.

Sample C[C@]12CC[C@@H]3c4ccc(OC(=O)N(CCCl)CCCl)cc4CC[C@H]3[C@@H]1CC[C@@H]2O ; fold change of Histamine concentration observed: 0.899

Query C[N+]1(C)CCCCC1 yields fold change of Histamine concentration of 1.01

Lab book: fold change of Histamine concentration of COC(=O)NC(=S)Nc1ccccc1NC(=S)NC(=O)OC noted as 0.974

Entry Cc1nc(N(C)C)nc(OC(=O)N(C)C)c1C — recorded fold change of Histamine concentration = 1.01

Entry CS(=O)(=O)NC(=O)c1cc(Oc2ccc(C(F)(F)F)cc2Cl)ccc1[N+](=O)[O-] ; fold change of Histamine concentration = 0.93

Item: c1ccc2c(c1)OCC(C1=NCCN1)O2 (configuration not stated) [Idazoxan hydrochloride] | fold change of Histamine concentration: 1

Summary for this compound, CN(C)C(=O)Oc1ccc[n+](C)c1 [Pyridostigmine iodide] : fold change of Histamine concentration is 1.05

For record CN(C)C(CSS(=O)(=O)O)CSS(=O)(=O)O the listed fold change of Histamine concentration is 1.01

fold change of Histamine concentration in this record for O=c1c2ccccc2[se]n1-c1ccccc1 : 0.916

fold change of Histamine concentration in this record for C[C@@H]1[C@@H](c2ccc(Cl)cc2)SC(=O)N1C(=O)NC1CCCCC1 : 0.918

get_value(item= N#Cc1sc2c(=O)c3ccccc3c(=O)c=2sc1C#N , readout=fold change of Histamine concentration) returns 0.994

Form field fold change of Histamine concentration, entry C[C@@H]1CN([C@H]2CC[C@](C#N)(c3ccc(F)cc3)CC2)CC[C@]1(C(=O)O)c1ccccc1 [Levocabastine hydrochloride] : 1.03

// sample NCC1(CC(=O)O)CCCCC1 , its fold change of Histamine concentration was 1.04

Lookup result for CC1(C)CON(Cc2ccccc2Cl)C1=O ; measured fold change of Histamine concentration: 1.02

Reported fold change of Histamine concentration ( CCC1(C)CC(=O)NC(=O)C1 [Bemegride] ) = 0.98

Reported fold change of Histamine concentration of Cc1cc(C)nc(Nc2ccccc2)n1 : 0.986

Record summary for C[N+](C)(C)CCCCCCCCCC[N+](C)(C)C [Decamethonium bromide] : reported fold change of Histamine concentration = 0.907

// field: fold change of Histamine concentration; key: C[N+]1(C)CCOC(O)(c2ccc(-c3ccc(C4(O)C[N+](C)(C)CCO4)cc3)cc2)C1 (configuration not stated) [Hemicholinium bromide] ; value = 0.912

What the record says about CCOC(=O)CC(SP(=S)(OC)OC)C(=O)OCC (configuration not stated) : fold change of Histamine concentration is 0.998

For CCN(C)C(=O)Oc1cccc([C@H](C)N(C)C)c1 the compound record lists fold change of Histamine concentration as 0.987

In plain terms, CCOC(=O)OC1=C(c2cc(C)ccc2C)C(=O)N[C@]12CC[C@@H](OC)CC2 has a documented fold change of Histamine concentration of 1.01

The recorded fold change of Histamine concentration for CCCN(CCOc1c(Cl)cc(Cl)cc1Cl)C(=O)n1ccnc1 is 1.02

compound N#Cc1c(Cl)c(Cl)c(Cl)c(C#N)c1Cl , fold change of Histamine concentration observed: 1.03

Briefly, fold change of Histamine concentration measured for Clc1ccc(C(c2ccc(Cl)cc2)C(Cl)(Cl)Cl)cc1 : 1.03

Input CC(C)N(CCC(C(N)=O)(c1ccccc1)c1ccccn1)C(C)C (configuration not stated) [Disopyramide] . Output fold change of Histamine concentration: 0.927

fold change of Histamine concentration recorded for this compound, Oc1ccc(Cl)cc1Cc1cc(Cl)ccc1O , is 1.12

Lab book: fold change of Histamine concentration of CC(C)(C)NCC(O)c1cc(Cl)c(N)c(Cl)c1 (configuration not stated) [Clenbuterol hydrochloride] noted as 0.983

The reported value for CCC(CC)Nc1c([N+](=O)[O-])cc(C)c(C)c1[N+](=O)[O-] in terms of fold change of Histamine concentration is 1.07

// O=[N+]([O-])O[C@H]1CO[C@H]2[C@@H]1OC[C@H]2O[N+](=O)[O-] [Isosorbide dinitrate] : fold change of Histamine concentration value = 0.954

Just so you know, measured fold change of Histamine concentration for CN1[C@@H]2CC[C@H]1C[C@@H](OC(=O)[C@H](CO)c1ccccc1)C2 came out at 0.941

response.value for CCCCN(CCCC)N=O (field: fold change of Histamine concentration) = 1.03

Data point: CN1C(=O)CCS(=O)(=O)C1c1ccc(Cl)cc1 (configuration not stated) ; fold change of Histamine concentration = 1

Record summary for C=CC[C@]1(O)CC[C@H]2[C@@H]3CCC4=CC(=O)CCC4=C3C=C[C@@]21C : reported fold change of Histamine concentration = 0.926

The compound listed as COc1ccccc1N has a reported fold change of Histamine concentration of 1.03

The value of fold change of Histamine concentration measured for the compound CCCCCCCCCCCCN=C(N)N turned out to be 1.03

// recorded fold change of Histamine concentration for NC(=O)CN1CCCC1=O : 1.04

// sample O=C(O)COc1ccc(Cl)cc1Cl , its fold change of Histamine concentration was 0.958

// O=C1C=CC(=O)C=C1 : fold change of Histamine concentration value = 0.996

The compound listed as COc1ccc(CCN2CCC(Nc3nc4ccccc4n3Cc3ccc(F)cc3)CC2)cc1 shows fold change of Histamine concentration equal to 0.968

GET /value?item= N#CCNC(=O)c1cnccc1C(F)(F)F &field=fold change of Histamine concentration returns 1.02

The compound CC(C1CC1)C(O)(Cn1cncn1)c1ccc(Cl)cc1 (mixture of isomers) showed fold change of Histamine concentration equal to 1.01

Record summary for C[C@]12CC[C@H](O)C[C@H]1CC[C@@H]1[C@@H]2C[C@@H](O)[C@]2(C)[C@@H](C3=CC(=O)OC3)CC[C@]12O : reported fold change of Histamine concentration = 0.938
